Every entry's value here was drawn from the supplement of paper PMC4466140.

Quick list: SPOT peptide array binding signal intensity per entry.
- TARGET_OR_TEST_SYSTEM: CaHse1
- ASSAY_METHOD_TEXT: SPOT peptide array binding signal intensity (averaged, normalized) (arbitrary units (background-subtracted, floor 0; scale differs between SH3 domains)); higher = stronger binding of the SH3 domain to the peptide
ATTRIBUTE_MEASURED: SPOT peptide array binding signal intensity

> print(dat)
             binder  relation.qualifier  assay.value
 1  SSSSTPPTLPPRRIE                   =          731
 2  AHFQPQRTAPKPPIS                   =          2.5
 3  GLRRARYKFPGQQKI                   =         11.5
 4  IKKRNKIRLPSGSPE                   =           38
 5  RRTRLRPPTPLSQLL                   =         60.6
 6  PHNPSPFFPPPDFND                   =            2
 7  IHTRRPSSTSQYLIR                   =          110
 8  HAPPLPPTAPPPPSL                   =          1.5
 9  SRQAIPPPVPNRPGG                   =          101
10  NAGIRPKFILALNDE                   =          6.5
11  PKMLPIPSKPTLFDL                   =           79
12  KDKKTKPTPPPKPSH                   =            2
13  QGYPRQPQRPQRYHP                   ≤            0
14  WRPRIVPILPYITRL                   =           32
15  RLPAPPPPPRRGPAP                   =         5.25
